Items are presented alongside their recorded zone of inhibition at 64 µg/mL.
tested on: Pseudomonas putida; test: Antibacterial activity against Pseudomonas putida MTCC 1072 at 64 ug/ml after 16 hrs by disc diffusion method; type: functional; conditions: MTCC 1072, 16 h, read-out: IZ

Example cases with answers are listed next.
CC1(C)S[C@@H]2[C@H](NC(=O)[C@H](N)c3ccccc3)C(=O)N2[C@H]1C(=O)O : 0 mm
CC1(C)CC(=O)C2=C(C1)OC(N)=C(C#N)C2c1ccc([N+](=O)[O-])cc1 (stereo not given) : < 1 mm
COc1ccc(C2C(C#N)=C(N)OC3=C2C(=O)CC(C)(C)C3)cc1 (stereo not given) : > 2 mm

Here is another molecule to look at.
Q: Specify reported zone of inhibition at 64 µg/mL for the molecule shown: Cc1ccc(C2C(C#N)=C(N)OC3=C2C(=O)CC(C)(C)C3)cc1 (stereo not given)
Result: > 2 mm

###

Items are presented alongside their recorded MIC.
tested on: Escherichia coli; test: Antibacterial activity against Escherichia coli MTCC 41 after 12 to 16 hrs; assay type: functional

Example cases with answers are listed next.
CC1(C)CC(=O)C2=C(C1)OC(N)=C(C#N)C2c1ccccc1 (stereo unspecified) : > 128 µg/mL
COc1ccc(C2C(C#N)=C(N)OC3=C2C(=O)CC(C)(C)C3)cc1 (stereo unspecified) : 64 µg/mL
CC1(C)S[C@@H]2[C@H](NC(=O)[C@H](N)c3ccccc3)C(=O)N2[C@H]1C(=O)O : 16 µg/mL
CCOC(=O)C1=C(C)OC(N)=C(C#N)C1c1ccc(Cl)cc1 (stereo unspecified) : > 128 µg/mL
CC1(C)CC(=O)C2=C(C1)OC(N)=C(C#N)C2c1cccc([N+](=O)[O-])c1 (stereo unspecified) : 128 µg/mL

Here is another compound to look at.
Q: Specify reported MIC for the compound shown: CC1(C)CC(=O)C2=C(C1)OC(N)=C(C#N)C2c1ccc(Cl)cc1 (stereo unspecified)
Result: 128 µg/mL

###

tested on: Pseudomonas putida; assay: Antibacterial activity against Pseudomonas putida MTCC 1072 at 64 ug/ml after 16 hrs by disc diffusion method; assay type: functional; settings: MTCC 1072, 16 h, read-out: IZ
Items are presented alongside their recorded zone of inhibition at 64 µg/mL.

Example cases with answers are listed next.
CC1(C)CC(=O)C2=C(C1)OC(N)=C(C#N)C2c1ccccc1 (stereo unspecified) : > 2 mm
CCOC(=O)C1=C(C)OC(N)=C(C#N)C1c1ccc(C)cc1 (stereo unspecified) : < 1 mm
CCOC(=O)C1=C(C)OC(N)=C(C#N)C1c1cccc(O)c1 (stereo unspecified) : < 1 mm
CC1(C)CC(=O)C2=C(C1)OC(N)=C(C#N)C2c1cccc([N+](=O)[O-])c1 (stereo unspecified) : < 1 mm

Q: Param request: zone of inhibition at 64 µg/mL | system Pseudomonas putida | item CCOC(=O)C1=C(C)OC(N)=C(C#N)C1c1ccc(OC)cc1 (stereo unspecified)
Result: < 1 mm

Q: Param request: zone of inhibition at 64 µg/mL | system Pseudomonas putida | item CCOC(=O)C1=C(C)OC(N)=C(C#N)C1c1ccc(Cl)cc1 (stereo unspecified)
Result: < 1 mm

###

system: Pseudomonas putida; experiment: Antibacterial activity against Pseudomonas putida MTCC 1072 at 64 ug/ml after 16 hrs by disc diffusion method; type: functional; details: MTCC 1072, 16 h, read-out: IZ
quantity-measured: zone of inhibition at 64 µg/mL

Example cases with answers are listed next.
CC1(C)CC(=O)C2=C(C1)OC(N)=C(C#N)C2c1ccc(Cl)cc1 (stereo unspecified) : > 2 mm
CCOC(=O)C1=C(C)OC(N)=C(C#N)C1c1cccc([N+](=O)[O-])c1 (stereo unspecified) : < 1 mm
CCOC(=O)C1=C(C)OC(N)=C(C#N)C1c1cccc(Cl)c1 (stereo unspecified) : < 1 mm
CCOC(=O)C1=C(C)OC(N)=C(C#N)C1c1ccc([N+](=O)[O-])cc1 (stereo unspecified) : < 1 mm

Q: Specify reported zone of inhibition at 64 µg/mL for the compound shown: CC1(C)CC(=O)C2=C(C1)OC(N)=C(C#N)C2c1cccc(O)c1 (stereo unspecified)
Result: > 3 mm

Q: Specify reported zone of inhibition at 64 µg/mL for the compound shown: CCOC(=O)C1=C(C)OC(N)=C(C#N)C1c1ccccc1 (stereo unspecified)
Result: < 1 mm
